These data points were gathered from ChEMBL document CHEMBL3988442.

subject_of_test: Chromo domain-containing protein 1 (Saccharomyces cerevisiae (strain ATCC 204508 / S288c) (Baker's yeast)) (UniProt P32657)
Sequence (P32657 whole entry, the tested form may be a part): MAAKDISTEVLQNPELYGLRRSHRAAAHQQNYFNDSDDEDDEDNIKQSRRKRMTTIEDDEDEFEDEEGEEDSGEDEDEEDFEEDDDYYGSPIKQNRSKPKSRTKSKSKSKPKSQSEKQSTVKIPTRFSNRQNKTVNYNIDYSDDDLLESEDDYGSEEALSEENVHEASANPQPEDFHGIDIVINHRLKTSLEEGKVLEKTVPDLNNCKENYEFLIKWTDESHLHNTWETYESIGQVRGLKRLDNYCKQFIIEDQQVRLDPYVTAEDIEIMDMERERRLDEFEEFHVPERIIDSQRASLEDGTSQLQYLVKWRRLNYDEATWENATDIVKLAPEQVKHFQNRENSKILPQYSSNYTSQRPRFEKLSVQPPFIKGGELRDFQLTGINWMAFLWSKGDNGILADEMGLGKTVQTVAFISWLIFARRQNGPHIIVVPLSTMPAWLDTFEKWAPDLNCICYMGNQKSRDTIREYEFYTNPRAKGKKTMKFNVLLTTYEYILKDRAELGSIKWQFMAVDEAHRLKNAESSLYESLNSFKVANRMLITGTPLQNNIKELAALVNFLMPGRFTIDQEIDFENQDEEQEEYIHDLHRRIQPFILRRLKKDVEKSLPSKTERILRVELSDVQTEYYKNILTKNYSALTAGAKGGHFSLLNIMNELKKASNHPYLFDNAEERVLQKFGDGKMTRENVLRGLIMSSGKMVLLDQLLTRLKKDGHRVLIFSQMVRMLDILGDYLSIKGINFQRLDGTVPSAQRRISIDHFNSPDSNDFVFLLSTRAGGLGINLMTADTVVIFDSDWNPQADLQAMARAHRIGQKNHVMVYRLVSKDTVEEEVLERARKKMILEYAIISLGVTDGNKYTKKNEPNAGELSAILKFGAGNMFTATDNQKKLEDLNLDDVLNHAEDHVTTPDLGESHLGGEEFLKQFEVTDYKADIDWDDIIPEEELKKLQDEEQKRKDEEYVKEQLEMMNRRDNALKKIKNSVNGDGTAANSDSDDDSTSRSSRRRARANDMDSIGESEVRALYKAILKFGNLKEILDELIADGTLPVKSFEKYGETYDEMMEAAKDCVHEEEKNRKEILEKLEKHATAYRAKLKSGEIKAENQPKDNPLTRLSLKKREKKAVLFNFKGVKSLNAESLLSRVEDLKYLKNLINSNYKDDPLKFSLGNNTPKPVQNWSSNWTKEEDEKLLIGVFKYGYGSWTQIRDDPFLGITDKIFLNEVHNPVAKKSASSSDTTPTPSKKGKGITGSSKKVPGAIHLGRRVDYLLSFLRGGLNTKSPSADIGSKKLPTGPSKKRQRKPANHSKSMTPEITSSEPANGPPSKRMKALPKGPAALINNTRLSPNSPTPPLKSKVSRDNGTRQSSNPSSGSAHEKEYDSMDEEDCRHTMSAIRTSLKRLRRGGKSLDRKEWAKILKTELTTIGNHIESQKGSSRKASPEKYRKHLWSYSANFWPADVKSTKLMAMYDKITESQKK
experiment_notes: ScCHD-1 Enzyme Inhibition Assay; further: in the data most compounds retested in dose-response had high values
Format: functional
Set-up: scale not given: direction of the effect not stated beside the values
run_conditions: 30 µM
Exercise: state measured Percent Effect for each of the molecules provided.
Write the number in % without appending the unit.

Ask | Tell me its Percent Effect given CC(C)c1nc(CN2CCCCC2)cs1 as the entry.
Reply | 0.144

Ask | Identify the reported Percent Effect for the following entry. CCC(=O)N1CCC(c2nnc(Cn3cccn3)n2C2CC2)CC1
Reply | -0.227

Ask | Find the measured Percent Effect of Cc1ccc(CCC(=O)N(C)CCN2CCOCC2)c(C)c1 and report it.
Reply | 4.92

Ask | Name the recorded Percent Effect of the molecule listed here: CCn1c(N)nc2cc(C(=O)NCc3ccccc3Cl)cnc21
Reply | -4.29

Ask | Identify measured Percent Effect corresponding to Cc1cnc(CNc2c(F)cccc2-n2cccn2)o1
Reply | 101

Ask | Please give measured Percent Effect of the following entry: O=C(c1cnccn1)N1C[C@@H]2CC[C@H](C1)N(C(=O)Cc1ccsc1)C2
Reply | -0.624

Ask | Respond only with Percent Effect recorded for Cc1csc(C2CCCN(C(=O)c3cc(Cl)c[nH]3)C2)n1 (configuration not stated)
Reply | -2.75

Ask | Output Percent Effect of COc1c(CNC2CCc3c(Cl)cccc32)c(C)nn1C (configuration not stated)
Reply | 108

Ask | Please give the documented Percent Effect of O=C(COc1cccc(Br)c1)N1CCN(c2nccs2)CC1
Reply | 84.6

Ask | Return Percent Effect for the following molecule: NC(=O)C(CNC(=O)COCC(F)(F)F)Cc1ccc(F)cc1 (configuration not stated)
Reply | -4.87

Ask | Provide only the value of recorded Percent Effect for Cc1ccc(CN2C[C@@H]3COC[C@H](C(=O)N4CCCCO4)[C@@H]3C2)o1
Reply | -3.93

Ask | Respond only with Percent Effect recorded for Cc1nc(C)n(CC2CCCN2CCCc2ccccc2)n1 (configuration not stated)
Reply | -1.02

---

For each of the compounds below, state its Percent Effect.
Species on record: Homo sapiens
experiment_notes: To identify inhibition of the IFN signalling (Jak-Stat) pathway via expression of an eGFP reporter gene under the control of an IFN-stimulated response element (ISRE) containing MxA promoter.
Format: functional
Design: scale not given: direction of the effect not stated beside the values
run_conditions: 30 µM
Provide the reading as a plain figure in %.

Ask | Find the measured Percent Effect of Cc1nccn1CC1CCCN1S(=O)(=O)Cc1ccon1 (stereo unspecified) and report it.
Reply | 7.78

Ask | Specify Percent Effect for Cc1noc(C)c1CN1CC[C@H]2OCC[C@@H](C(=O)N3CCCO3)[C@@H]2C1 and stop.
Reply | -8.37

Ask | Annotate the compound CCc1nc(C2CCCN(C(=O)CCn3ccccc3=O)C2)no1 (stereo unspecified) with its measured Percent Effect.
Reply | -13.7

Ask | Return Percent Effect (reported value) for this compound: CN(C)CCCNC(=O)c1cc(Br)c2c(c1)OCCO2
Reply | -10

Ask | Given CN(C)S(=O)(=O)N1CCN(c2nccc(C(F)(F)F)n2)CC1 , respond with its Percent Effect.
Reply | 9.93

Ask | Indicate the recorded Percent Effect value for this compound: COc1ccccc1OCC(=O)NS(=O)(=O)c1cc(F)ccc1F
Reply | 0.0392

---

Provide the reported Percent Effect of each item.
subject_of_test: Sialic acid-binding Ig-like lectin 9 (Homo sapiens) (UniProt Q9Y336)
Sequence (Q9Y336 whole entry): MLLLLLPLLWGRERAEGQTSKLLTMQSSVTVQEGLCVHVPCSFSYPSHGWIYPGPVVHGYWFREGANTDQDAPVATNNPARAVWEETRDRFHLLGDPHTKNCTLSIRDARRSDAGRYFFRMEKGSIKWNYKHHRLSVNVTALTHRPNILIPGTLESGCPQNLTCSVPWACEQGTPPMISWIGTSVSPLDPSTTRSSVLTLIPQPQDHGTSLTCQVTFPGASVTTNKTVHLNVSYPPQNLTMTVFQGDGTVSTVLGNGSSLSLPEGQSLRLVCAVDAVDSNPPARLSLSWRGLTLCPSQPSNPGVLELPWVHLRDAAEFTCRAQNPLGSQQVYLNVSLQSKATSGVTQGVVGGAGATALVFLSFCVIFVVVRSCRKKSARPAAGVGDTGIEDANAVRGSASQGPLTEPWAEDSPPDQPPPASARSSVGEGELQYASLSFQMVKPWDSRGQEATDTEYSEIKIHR
experiment_notes: Hs-Siglec9 ALPHAscreen SOP 20170721
Parameters: scale not given: direction of the effect not stated beside the values
run_conditions: 10 µM
Number only, in %; omit the unit.

Ask | For Cn1nc(C2CN(C(=O)c3cscn3)C2)c2nccnc21 , write its Percent Effect.
Reply | -2.09

Ask | Supply measured Percent Effect of Cc1ccc([C@@H]2CN(S(=O)(=O)C(C)C)C[C@H]2N(C)C)cc1 in your reply.
Reply | 23.9

Ask | Complete the entry with Percent Effect for O=c1nc(SCc2ccncc2)c2c(n1CCO)CCCC2
Reply | 11.4

Ask | Please indicate Percent Effect recorded for O=C(C1CCCCN1Cc1nc(-c2ccco2)no1)N1CCCC1 (centres undefined)
Reply | 4.5

Ask | In one line, give reported Percent Effect of the entry CCc1[nH]ncc1C(=O)N1CCCN(Cc2cnn(C)c2)CC1 .
Reply | -6.37

Ask | Look up and report measured Percent Effect for this entry: O=C(c1ccncc1)N1Cc2ccccc2OC2(CCOCC2)C1
Reply | 1.54

Ask | Kindly indicate its recorded Percent Effect. Item: Cc1cc(NC(=O)CN2CCc3cnc(C)nc3C2)on1
Reply | 2.68

Ask | Note down Percent Effect recorded for CN(C)C(=O)N1C[C@@H]2CCCO[C@@H]2[C@H](N(C)Cc2ccco2)C1
Reply | 7.85

Ask | Could you please provide reported Percent Effect for CNC(=O)c1cccc(C2CNCCN2C)c1 (centres undefined) ? Thanks!
Reply | -1.87

Ask | Determine from records and report Percent Effect for Cc1ccc(CN2C[C@@H]3COC[C@H](C(=O)N4CCCCO4)[C@@H]3C2)o1
Reply | 2.5

Ask | Give Percent Effect for the following molecule: COc1cccc(S(=O)(=O)NC(=O)COC2CCCC2)c1
Reply | 10.4

Ask | Answer with the recorded Percent Effect of Cc1ccc(NC(=O)N2CCN(Cc3noc(C4CC4)n3)CC2)cc1 only.
Reply | -5.9

Ask | Tell me measured Percent Effect for CCc1nc(C2CCCN2Cc2nc(C3CC3)no2)no1 (centres undefined) please.
Reply | 16.2

Ask | # return recorded Percent Effect for input CSCC(=O)N1CCCC1c1noc(C2CC2)n1 (centres undefined)
Reply | 12.3

Ask | Retrieve Percent Effect measured for COCCC(=O)N1CCC2(COCc3cnc(N4CCOCC4)nc32)C1 (centres undefined) and print it.
Reply | -1.98

Ask | Return Percent Effect for the following molecule: Cc1ccccc1S(=O)(=O)NC(=O)CSc1ccc2c(c1)OCCO2
Reply | -9.91

Ask | For the molecule O=C1NCCN1C1CCCN(Cc2nnc(-c3ccc(F)cc3)o2)C1 (centres undefined) , report Percent Effect.
Reply | 16.6

Ask | Identify measured Percent Effect associated with Cc1n[nH]c(C)c1C1CCCN1C(=O)NCC(=O)NC(C)(C)C (centres undefined)
Reply | 3.62

Ask | Identify Percent Effect associated with the molecule O=C(c1cccc(Cl)c1)N1CC[C@H]2[C@H]1CCN2CC1CCOCC1
Reply | 0.0847

Ask | For the molecule Cc1cc(C[C@@H]2COC[C@H]2NCc2ccccc2C(F)(F)F)on1 , give its reported Percent Effect.
Reply | 6.23

Ask | Supply reported Percent Effect belonging to this molecule: CCN1CCN(S(=O)(=O)c2ncn(C)c2Cl)CC1
Reply | 3.04

Ask | Please indicate Percent Effect recorded for COc1cccc(CN2CCCCCC2c2cccs2)c1O (centres undefined)
Reply | -0.0415

Ask | Look up Percent Effect of CN(Cc1ccc(F)cc1)C(=O)NCc1nnc2n1CCCCC2 and report it.
Reply | 5.52

Ask | Please look at this molecule and report its Percent Effect: O=C(COCc1ccccc1)N1CCCC(n2cncn2)C1 (centres undefined)
Reply | 0.0525

---

subject_of_test: Arginase-2, mitochondrial (Homo sapiens) (UniProt P78540)
Sequence (P78540 whole entry): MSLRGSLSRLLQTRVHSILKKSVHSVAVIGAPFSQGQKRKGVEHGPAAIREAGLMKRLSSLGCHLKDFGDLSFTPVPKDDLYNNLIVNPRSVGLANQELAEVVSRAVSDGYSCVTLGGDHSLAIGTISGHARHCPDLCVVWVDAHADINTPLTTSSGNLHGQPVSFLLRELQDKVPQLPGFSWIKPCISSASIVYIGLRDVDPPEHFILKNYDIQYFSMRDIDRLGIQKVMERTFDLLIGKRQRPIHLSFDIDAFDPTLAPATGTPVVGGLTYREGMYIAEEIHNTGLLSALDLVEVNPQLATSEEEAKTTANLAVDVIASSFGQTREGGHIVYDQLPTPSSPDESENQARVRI
experiment_notes: in vitro enzyme assay to detect the production of urea directly proportional to the activity of Arginase II; further: in the data most compounds retested in dose-response had high values
Type: functional
Design: scale not given: direction of the effect not stated beside the values
run_conditions: 33.3 µM
For each entry below, report its Percent Effect value.
The answer consists of two parts: a number and, after it, its unit.

Ask | Give the reported Percent Effect for this compound. Cc1noc(C)c1CNCC1CCN(CC(O)c2ccccc2)CC1 (stereo not given)
Reply | -1.5%

Ask | Write down Percent Effect measured for item CCn1cc(C(=O)NC2CCN(S(C)(=O)=O)CC2)c2ccccc21
Reply | 0.248%

Ask | Return reported Percent Effect. Input compound: COCCO[C@@H]1C[C@H]2CN(C(=O)c3cnccn3)CCN2C1
Reply | -39.6%

Ask | Retrieve Percent Effect measured for CC(C)C(=O)NCc1cccc(N2CCCCC2=O)c1 and print it.
Reply | 1.05%

Ask | Using the record for COC(=O)c1ccc(N2CCN(C(=O)c3cc(C)on3)C(C)C2)cc1 (stereo not given) , state its measured Percent Effect.
Reply | 0.76%

Ask | Annotate the compound CC(=O)N1CCCCC1c1nc(N)ncc1-c1ccccc1 (stereo not given) with its measured Percent Effect.
Reply | 19.8%

Ask | Report Percent Effect, nothing else, for this compound: O=C(c1ccsc1)N1CCCC(c2cc(C(F)(F)F)[nH]n2)C1 (stereo not given)
Reply | 0.719%

Ask | Using known records, supply Percent Effect for CC(Oc1ccccc1C(F)(F)F)C(=O)NCCC(=O)N(C)C (stereo not given)
Reply | 26.2%

Ask | Name the recorded Percent Effect of the item O=C(Cn1ccc2ccccc21)NCc1ccc(C(=O)O)cc1 in your answer.
Reply | 0%

Ask | Supply Percent Effect value. Item: O=C(C1CCC1)N1CCN(C(=O)c2cnccn2)[C@H]2CS(=O)(=O)C[C@H]21
Reply | 0.476%
